# melting point listing for each entry below

Worked set:
{"line-notation": "NC(=O)NCC(=O)N1CCc2nc(-c3ccc(O[C@H]4C[C@H](N5CCCCC5)C4)cc3)sc2C1", "melting point": "209 to 210 °C"}
{"line-notation": "O=C(CC(F)(F)F)N1CCc2nc(-c3ccc(O[C@H]4C[C@H](N5CCCCC5)C4)cc3)sc2C1", "melting point": "167 to 168 °C"}

Asked: Provide melting point value for the following compound: O=C(O)COCC(=O)N1CCc2nc(-c3ccc(O[C@H]4C[C@H](N5CCCCC5)C4)cc3)sc2C1
Given back: > 200 °C

Asked: Provide melting point value for the following compound: Cc1n[nH]nc1C(=O)N1CCc2nc(-c3ccc(O[C@H]4C[C@H](N5CCCCC5)C4)cc3)sc2C1
Given back: 150 to 154 °C

Asked: Provide melting point value for the following compound: c1cc2nc(-c3ccc(O[C@H]4C[C@H](N5CCCCC5)C4)cc3)[nH]c2cn1
Given back: 165 to 172 °C

###

# melting point listing for each entry below

Worked set:
{"compound": "O=C(C(O)CO)N1CCc2nc(-c3ccc(O[C@H]4C[C@H](N5CCCCC5)C4)cc3)sc2C1 (stereo partly drawn)", "observed-property": "melting point", "recorded-result": "167 to 168 °C"}
{"compound": "O=C(C1CCOCC1)N1CCc2nc(-c3ccc(O[C@H]4C[C@H](N5CCCCC5)C4)cc3)sc2C1", "observed-property": "melting point", "recorded-result": "175 to 176 °C"}
{"compound": "CC(=O)N1CCc2nc(-c3ccc(O[C@H]4C[C@H](N5CCN(C6CCCC6)CC5)C4)cc3)sc2C1", "observed-property": "melting point", "recorded-result": "145.7 to 146.1 °C"}
{"compound": "O=C(C(O)C(F)(F)F)N1CCc2nc(-c3ccc(O[C@H]4C[C@H](N5CCCCC5)C4)cc3)sc2C1 (stereo partly drawn)", "observed-property": "melting point", "recorded-result": "147 to 148 °C"}
{"compound": "CC(=O)N1CCc2nc(-c3ccc(O[C@H]4C[C@H](N5CCOCC5)C4)cc3)sc2C1", "observed-property": "melting point", "recorded-result": "161.6 to 162.2 °C"}

Asked: Provide melting point value for the following compound: CC(C)Oc1c(N2CCc3nc(-c4ccc(O[C@H]5C[C@H](N6CCCCC6)C5)cc4)sc3C2)c(=O)c1=O
Given back: 157 to 159 °C

###

# melting point listing for each entry below

{"line-notation": "CCOC(=O)C(=O)N1CCc2nc(-c3ccc(O[C@H]4C[C@H](N5CCCCC5)C4)cc3)sc2C1", "recorded-result": "145 to 146 °C"}
{"line-notation": "NC(=O)C1(C(=O)N2CCc3nc(-c4ccc(O[C@H]5C[C@H](N6CCCCC6)C5)cc4)sc3C2)CC1", "recorded-result": "199 to 200 °C"}

As a next step, examine the compound that follows.
Asked: Provide melting point value for the following compound: O=c1c(O)c(N2CCc3nc(-c4ccc(O[C@H]5C[C@H](N6CCCCC6)C5)cc4)sc3C2)c1=O
Given back: > 220 °C
